Target: human CCR8 (human, UniProt P51685 1-355)
Sequence (P51685 whole entry): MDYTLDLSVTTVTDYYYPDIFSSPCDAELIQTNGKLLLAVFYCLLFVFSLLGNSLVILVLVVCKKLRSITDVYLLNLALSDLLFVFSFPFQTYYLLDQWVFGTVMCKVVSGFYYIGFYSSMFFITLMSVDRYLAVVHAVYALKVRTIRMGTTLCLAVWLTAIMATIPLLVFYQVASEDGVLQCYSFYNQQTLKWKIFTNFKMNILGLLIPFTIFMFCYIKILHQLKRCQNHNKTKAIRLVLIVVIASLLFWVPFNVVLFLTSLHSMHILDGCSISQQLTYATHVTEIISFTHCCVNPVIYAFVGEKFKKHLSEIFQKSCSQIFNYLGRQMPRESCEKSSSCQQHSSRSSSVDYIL
Assay: cell-based or functional assay
Endpoint Label: Tango IC50 (nM)
The answer is to be given in nM; state only the numeric part.

Incoming: For 2P15 (antibody, V domains shown, Mouse hybridoma monoclonal antibody) VH: EVQLVESGGGLVQPKGSLKLSCAASGFSFNAYAMNWVRQAPGKGLEWVARMRSKSNYYATYYADSVKDRFTISRDDSESMLYLQMNNLKTEDTAMYYCVRQTYGSKDYAMDYWGQGTSVTVSS VL: DVVMTQTPLSLPVSLGDQASISCRSSQSLVHSNGNTYFHWYLQKPGQSPKLLIYKVSNRFSGVPDRFSGSGSGTDFTLKISRVEAEDLGVYFCSQSTHVPFTFGSGTKLEIK , what is its reported Tango IC50?
Outgoing: 1.87

Incoming: For 3F6 (antibody, V domains shown, Mouse hybridoma monoclonal antibody) VH: EVQFVESGGGLVQPKGSLKLSCAASGFSFNTYAMNWVRQAPGKGLEWVARIRTKSNNYATHYADSVKDRFIVSRDDSENILYLQMNNLKTEDTGMYYCVRGGNGIYGRNAMDNWGQGTSVTVSS VL: DIVMTQAAPSVPVSPGESVSISCRSSKSLLHSSGNTYLYWFLQRPGQSPQLLIYRMSNLASGVPDRFSGSGSGTAFTLRISRVEAEDVGVYYCMQHLEYPFTFGGGTKLEIK , what is its reported Tango IC50?
Outgoing: 0.51

Incoming: For 84B4 (antibody, V domains shown, Mouse hybridoma monoclonal antibody) VH: EVQLQQSGPVLVKPGASVKMSCKASGFTITDYYFNWVKQSHGKSLEWIGIINPYNGVARYKQKFKGKATLTVDKSSSTVYLEFSGLTSEDSAVYYCVRFVYGTTYDYAMDYWGQGTSVTVSS VL: DVLMTQTPLSLPVSLGDQASISCRSSQSIVHSNGNTYLEWYVQKPGQSPKLLIYKVSNRFSGVPDRFSGSGSGTDFTLKISRVEAEDLGVYYCFQGSHVPPTFGGGTKLEIK , what is its reported Tango IC50?
Outgoing: 1.86
